- TARGET_ENTITY: human PHF19-Tudor (residues 37–95) (human)
- TEST_DESCRIPTION: NMR titration
PARAMETER_MEASURED: pKd
pKd is defined as minus the log10 of a concentration measured in mol/L.

[ask] I'd like to know its pKd. The substance in question is 11-mer H3K36me3 peptide (31-ATGGVKme3KPHRY-41)
[reply] 4.54
